Experiment: chemical genetic growth profiling, strain panel (AID 1159580);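 note: tested at 20 µM; growth read once vehicle control cultures reached saturation at 30 °C; 1 = growth at the plate median or of vehicle wells; lower values mean less growth of the strain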
Details: S. cerevisiae deletion strains, growth OD, locus YLR342W, strain FKS1, stronger effect = lower value
About 2,000 (36%) of roughly 5,500 compounds were called active. Inconclusive results (about 18%) are left out. The list shows a part of the results.
The reader will find reported normalized growth values listed item by item below.
Reply briefly: the number, and no unit.

Sample records with normalized growth:
compound	measured.number
CS(=O)(=O)OCCCCOS(C)(=O)=O	1.02
CCOC(=O)c1ccc(N)cc1	1
CO[C@@H]1[C@@H](O[C@@H]2O[C@H](C)[C@@H](O[C@H]3C[C@@](C)(O)[C@H](O)[C@H](C)O3)[C@H](N(C)C)[C@H]2O)[C@@H](CC=O)C[C@@H](C)[C@@H](O[C@H]2CC[C@H](N(C)C)[C@@H](C)O2)/C=C/C=C/C[C@H](C)OC(=O)C[C@H]1O	1.02
OC/C=C/c1ccc(O)c(O)c1	1.01
CC[C@@]1(C2O[C@@H](C3O[C@@](O)(CC)[C@H](C)C[C@@H]3C)C[C@@H]2C)CC[C@H]([C@]2(C)CCC3(C[C@H](O)[C@@H](C)[C@@H]([C@H](C)[C@@H](OC)[C@H](C)C(=O)O)O3)O2)O1 (stereo partly specified)	1.01

Lookup: I would be grateful if you could share the reported normalized growth for CC1=CC(=O)CC(C)(C)C1(O)/C=C/C(C)=C\C(=O)O (stereo unspecified) .
Found: 1.03

Values from PubChem BioAssay AID1159580
